# Test system: OVCAR-5 ovarian
# assay_procedure: NCI tumour cell line growth inhibition, 48 h
readout_type: GI50

>>> recorded_value("O=C(CSc1nc2ccccc2nc1-c1ccccc1)Nc1ccc(Cl)cc1")
"> 100 µM"
>>> recorded_value("N=C(N)/N=C(\\N)c1c(-c2cc(O)ccc2O)nc2sccn12")
"18.3 µM"
>>> recorded_value("COC(=O)[C@@]1(Cc2ccccc2)[C@H]2c3cc(C(=O)N4CCCC4)n(Cc4ccc(OC)c(OC)c4)c3C[C@H]2CN1C(=O)c1ccccc1")
"9.19 µM"
>>> recorded_value("CCOC(CCCNCCCn1c2c(c3cc(OC)c(OC)cc3c1=O)C(=O)c1cc3c(cc1-2)OCO3)OCC")
"10.2 µM"
>>> recorded_value("O=C1/C=C/[C@@H](O)[C@@H]2C[C@@H](O)C[C@H]2/C=C/CCC[C@H](CCc2ccc(C(F)(F)F)cc2)O1")
"0.505 µM"
>>> recorded_value("CCN(CC)CCCC(C)Nc1cc(-c2ccc(C(F)(F)F)cc2)c(C#N)c2nc3ccccc3n12 (centres undefined)")
"2.29 µM"
>>> recorded_value("Fc1ccc(-c2nn3c(CNc4ccccc4)nnc3s2)cc1")
"30.2 µM"
>>> recorded_value("O=Nc1ccc(O)c2ccccc12")
"2.13 µM"
>>> recorded_value("COc1ccc(CCN2CCCN3C2=Nc2ccccc2S3(=O)=O)cc1")
"20.2 µM"

###

# Tested on: MOLT-4 leukemia
# assay_procedure: NCI tumour cell line growth inhibition, 48 h
Reported values of TGI for individual entries
readout_type: TGI

>>> recorded_value("CCN(CC)CC.CCOc1ccc(NC(=O)N=C=[N-])cc1.[CH-]1CCCCC1.[CH-]1CCCCC1.[CH-]1CCCCC1.[Cl-].[Sn+4]")
"0.233 µM"
>>> recorded_value("C[N+](C)(C)CC(=O)N/N=C(\\CCC(=O)NCCc1ccccc1)CC(=O)c1ccccc1")
"> 100 µM"
>>> recorded_value("CCN(CC)c1ccc(C2CC(c3cc(OC)c(OC)c(OC)c3)=NN2)cc1 (stereo not drawn)")
"8.14 µM"
>>> recorded_value("C/C(=C/c1ccccc1)CN(C(=O)/C=C\\Sc1ccccc1)C(C)(C)C")
"> 100 µM"
>>> recorded_value("COc1ccc(N=Nc2c(C)c(C#N)c(=S)n(C3OC(COC(C)=O)C(OC(C)=O)C(OC(C)=O)C3OC(C)=O)c2C)cc1 (stereo not drawn)")
"> 100 µM"
>>> recorded_value("O=c1[nH]c(=O)n(C2OC(CO)C(O)C2O)c2ncc(-c3ccc(-c4ccccc4)cc3)nc12 (stereo not drawn)")
"> 20 µM"
>>> recorded_value("C=C1C(=O)OC2/C=C(\\C)C3OC3/C=C(/C(=O)OC)C(O)C(OC(=O)C3(C)OC3C)C12 (stereo not drawn)")
"4.05 µM"
>>> recorded_value("COc1cccc(Cn2c(-c3nonc3N)nc3ccccc32)c1")
"> 100 µM"
>>> recorded_value("C/C1=C/C(=O)O[C@@H]2C[C@@H](CC[C@H](C)/C=C\\C=C\\CC1)O[C@@](O)([C@@H]1CSC(=O)N1CO)C2")
"> 51.8 µM"
>>> recorded_value("[O-]c1c[n+](CCCC[n+]2cc([O-])on2)no1")
"> 100 µM"
>>> recorded_value("CCOC(=O)C(Cc1c[nH]c2ccc([N+](=O)[O-])cc12)(NC(C)=O)C(=O)OCC")
"> 1000 µM"
>>> recorded_value("CCOC(=O)C(NC(=O)C(CCCCNP(=O)(OCC)OCC)NC(=O)C(C)NC(C)=O)C(C)C (stereo not drawn)")
"> 100 µM"
>>> recorded_value("CCOC(=O)C[C@@H](C)[C@]1(C(=O)OC)CCCC1=O")
"> 100 µM"
>>> recorded_value("Cc1ncc(C(=O)Nc2ccc(CN3CCN(C)CC3)c(C(F)(F)F)c2)cc1C#Cc1cnc(N)c2cnccc12")
"4.98 µM"
>>> recorded_value("Cc1cccc(O)c1-c1nnc(CCCCCCCCc2nnc(-c3c(C)cccc3O)n2N)n1N")
"> 42.1 µM"
>>> recorded_value("CC(=O)OCc1ccc2oc(=O)c(C(=O)Oc3cccc(Cl)c3)cc2c1")
"> 100 µM"
>>> recorded_value("COc1ccc(/C=N/n2c(=O)[nH]c3ccccc3c2=O)cc1")
"> 100 µM"
>>> recorded_value("C#Cc1c(C)c(/C=C/C(C)=C/C=C/C(C)=C/C(=O)OC)n(C)c1C")
"> 100 µM"
>>> recorded_value("COc1ccccc1-c1cc(/C=C2\\C(=O)Nc3ncc(Br)cc32)cc(Br)c1O")
"> 25 µM"
>>> recorded_value("CC1(C)C(C#N)=[N+]([O-])C(C)(C)N1O")
"> 100 µM"
>>> recorded_value("C=CCCOC(=O)CO[N+](=O)[O-]")
"> 100 µM"
>>> recorded_value("C#CCSc1n[nH]c(-c2ccco2)n1")
"> 100 µM"
>>> recorded_value("COC(=O)[C@H]1C(=O)[C@@]2(C)[C@H]([C@H](OC(=O)c3ccccc3)[C@]3(O)C[C@H](OC(=O)[C@H](O)[C@@H](NC(=O)c4ccc(F)cc4)c4ccccc4)C(C)=C1C3(C)C)[C@]1(OC(C)=O)CO[C@@H]1C[C@@H]2O")
"3.42 µM"
>>> recorded_value("c1ccc(N=c2snc3scc(-c4ccccc4)n23)cc1")
"79.6 µM"
>>> recorded_value("C[C@H]1C(=O)O[C@@H]1[C@H]1COC(C)(C)O1")
"> 100 µM"
>>> recorded_value("CCOC(=O)/C(C=Nc1c(C)n(C)n(-c2ccccc2)c1=O)=C(/O)c1ccccc1")
"> 100 µM"
>>> recorded_value("CC(=O)NC(CCCCN(Cc1ccccc1)C(=O)NCCCl)C(=O)NCc1ccccc1 (stereo not drawn)")
"> 100 µM"
>>> recorded_value("O=C(Cc1nc2ccccc2s1)Nc1ccc(Cl)cc1")
"> 100 µM"
>>> recorded_value("O=Nc1c(-c2c(O)[nH]c3ccccc23)[nH]c2ccccc12")
"> 100 µM"
>>> recorded_value("O=C(Nc1ccc(Cl)cc1)NS(=O)(=O)c1coc2ccccc2c1=O")
"> 10 µM"
>>> recorded_value("CCSC1=N/C(=C\\c2ccco2)C(NN)=N1")
"> 50 µM"
>>> recorded_value("COc1ccc(CC2c3cc(OC)c(OC)c(OC)c3CC[N+]2(C)C)cc1Oc1ccc(CC2c3cc4c(c(OC)c3CC[N+]2(C)C)OCO4)cc1 (stereo not drawn)")
"> 100 µM"
>>> recorded_value("O=C(Nc1cccc(NC(=O)C(=O)C2CCC3=C(Sc4ccccc4N3)C2=O)n1)C(=O)C1CCC2=C(Sc3ccccc3N2)C1=O (stereo not drawn)")
"> 100 µM"
>>> recorded_value("Cc1cc(S(=O)(=O)NC(=C(C#N)C#N)[n+]2ccc(N(C)C)cc2)c([S-])cc1Cl")
"> 100 µM"
>>> recorded_value("Cc1c(-c2ccccc2)c(=O)oc2ccc(Cl)cc12")
"> 100 µM"
>>> recorded_value("CC(=O)OCC1OC(n2c(C#N)cc(=O)[nH]c2=O)CC1OC(C)=O (stereo not drawn)")
"> 100 µM"
>>> recorded_value("NC1OC(COC(=O)c2ccccc2)C(O)C(OC(=O)c2ccccc2)C1OC(=O)c1ccccc1 (stereo not drawn)")
"54 µM"
>>> recorded_value("Cc1cc(N)ccc1N=Nc1ccc(S(=O)(=O)CCOS(=O)(=O)O)cc1")
"> 32.5 µM"

###

# System: HCC-2998 colon
# assay_procedure: NCI tumour cell line growth inhibition, 48 h; in the data active = GI50 below about 0.43 µM; inactive = the rest
Outcomes: YES (active), NO (inactive)

>>> qualitative_label("CCOC(=O)C(Cc1c[nH]c2ccc([N+](=O)[O-])cc12)(NC(C)=O)C(=O)OCC")
"NO"
>>> qualitative_label("CCN(CC)CCCC(C)Nc1cc(-c2ccc(C(F)(F)F)cc2)c(C#N)c2nc3ccccc3n12 (stereo not given)")
"NO"
>>> qualitative_label("CCN1C(=O)N(CC)C2C1NN=c1s/c(=C\\c3ccccc3F)c(=O)n12 (stereo not given)")
"YES"
>>> qualitative_label("COc1cccc(Cn2c(-c3nonc3N)nc3ccccc32)c1")
"NO"
>>> qualitative_label("O=C(CCCCCCCn1cc(-c2cccnc2)nn1)Nc1ccccc1-c1ccccc1")
"YES"
>>> qualitative_label("COc1cc2c(F)nccc2cc1C(=O)N[C@@H](c1ccc(F)c(Cl)c1)[C@@H]1C[C@@H](O)CN1")
"NO"
>>> qualitative_label("CC(C)CCSC1=CC(=O)c2ccccc2C1=O")
"NO"
>>> qualitative_label("O=Cc1ccc(-c2ccc(-c3nc4ccccc4[nH]3)cc2)s1")
"NO"
>>> qualitative_label("COC(=O)[C@@]1(Cc2ccccc2)[C@H]2c3cc(C(=O)N4CCCC4)n(Cc4ccc(OC)c(OC)c4)c3C[C@H]2CN1C(=O)c1ccccc1")
"NO"
>>> qualitative_label("CCN(CC)c1ccc(C2CC(c3cc(OC)c(OC)c(OC)c3)=NN2)cc1 (stereo not given)")
"NO"
>>> qualitative_label("Cn1cc(-c2csc(-c3cn(C)c4ccc(Br)cc34)n2)c2cnccc21")
"NO"
>>> qualitative_label("O=C1/C(=C\\c2ccc(F)cc2)CN(C(=O)c2ccc([N+](=O)[O-])cc2)C/C1=C\\c1ccc(F)cc1")
"NO"
>>> qualitative_label("COC(=O)C(Cc1cnc[nH]1)NC(=O)CNC(=O)CCCn1c(=O)c2c3ccccc3n(C)c2n2nnc(-c3ccccc3)c12 (stereo not given)")
"NO"
>>> qualitative_label("CNC(=O)c1c(NC(=O)c2ccc(C(F)(F)F)cc2)sc2c1CCC(=O)C2")
"NO"
>>> qualitative_label("NC(=NCCCC1(c2ccccc2)CCCC1)Nc1ccc(Cl)cc1")
"NO"
